Measured melting point by item

Worked examples follow.
>>> print(df.to_string())
                                   compound  observed_result
0                         Cc1cc(CO)cc(Cl)n1    112 to 113 °C
1    C#CCN1CCCc2cccc(CSc3nc4ccccc4[nH]3)c21           122 °C
2  CCN1CCc2ccc(C(=O)CCC(=O)N3CCC(c4ccc(Cl)cc4)CC3)cc2CC1    156 to 157 °C
3  CC(C)(C)c1cc(CN(C=O)n2ccnc2)cc(C(C)(C)C)c1O           167 °C
4  Cn1ncc(C(=O)N2CCOCC2)c1C(=O)Nc1ccc2nc(-c3cccnc3)nn2c1           229 °C
5  O=Cc1coc(C(O)c2ccc(Br)cc2)c1 (stereo unspecified)      83 to 84 °C
6      CC1(C)C=Cc2c(ccc3c2C(=O)C(=O)C=C3)O1    109 to 110 °C
7           COC(=O)C=Cc1ccc(NC(C)=O)c(OC)c1           137 °C

Task: Let me know recorded melting point for O=C(Nc1ccccc1)Nc1cccc(-c2ccc(C(=O)N3CCN4CCC3CC4)o2)c1 , thanks.
Output: 125 to 130 °C

Task: Given CS(=O)(=O)Nc1ccc(S(=O)(=O)N2CCNc3nc4ccccc4n3CC2)cc1 , respond with its melting point.
Output: 192 to 200 °C

Task: Check the records and state melting point for CC(C)(C)OC(=O)c1nn(-c2ccc(Cl)cc2Cl)c(-c2ccc(Cl)cc2)c1CC#N
Output: 168 °C

Task: Give the measured melting point for CCOC(=O)/C=C/c1cn(-c2ccc(Cl)cn2)nc1C(C)C
Output: 105 to 106 °C

Task: # return recorded melting point for input COc1cc2c(c3c1OC(C)(C)C3)C(c1cccc(-c3ccc4ccccc4n3)c1)=NC(C)(C)C2
Output: 167 to 169 °C

Task: Note down melting point recorded for CNc1ccccc1C(=O)n1nc(O)c2cc(N)ccc21
Output: 169 to 170 °C

Task: Provide measured melting point value, entry: CCOC(=O)CC1=COc2ccc(O)cc2O1
Output: 160 °C

Task: Give the measured melting point for COc1ccc(C#Cc2ccc(OC)cc2)cc1
Output: 140 to 142 °C

Task: Specify reported melting point for the compound shown: COC(=O)COc1ccc(C(=O)CBr)cc1OC
Output: 105 to 107 °C

Task: In one line, give reported melting point of the entry COc1cn(-c2ccc(N3CCN(C)C3=O)cc2F)nc(-c2ccnn2-c2ccccc2)c1=O .
Output: 208 to 209 °C

Task: Input COc1ccccc1-c1cccn2nc(Nc3ccc4c(c3)CCN(CC(=O)N(C)C)CC4)nc12 , output reported melting point.
Output: 102 to 105 °C

Task: Please give the documented melting point of COC(=O)COc1ccc(C(=O)C(C)Br)cc1Cl (stereo unspecified)
Output: 63 to 65 °C

Task: Look up melting point of COc1cccc(S(=O)(=O)c2ccc3c(c2)c(CCN(C)C(=O)OC(C)(C)C)c(C)n3C)c1 and report it.
Output: 123 to 127 °C

* * *

READOUT_KIND: melting point

// solved cases for melting point follow
>>> df
                                   molecule  observed_result
0  Cc1ccc(N2C(=O)C3=C(CCCC3)C2=O)c2c1OC(CO)C2 (stereo not drawn)    177 to 179 °C
1  CC1SCN(CCCCN2CCN(c3nsc4ccccc34)CC2)C1=O (stereo not drawn)    113 to 115 °C
2  CC(C)NCC(O)COc1ccc(OCCSCC2CC2)cc1 (stereo not drawn)            86 °C
3                      Nc1nc2c3ccccc3ccn2n1    164 to 165 °C
4  Cc1ccc(-n2nc(C(C)(C)C)cc2NC(=O)Nc2ccc(OCCc3ccncc3)c3ccccc23)cn1    189 to 190 °C

Would you kindly look at the next entry?
Task: Annotate the molecule CCOC(=O)c1c(CN(CC)CC)nc2sc3c(c2c1-c1ccc(OC)c(OC)c1)CCN(C(=O)OCC)C3 with its measured melting point.
Output: 119 to 120 °C
